- ASSAY TARGET: T1, AtPEX5C D505H (Arabidopsis thaliana, UniProt Q9FMA3 340-728, D505H)
- T1 construct: Made by site-directed mutagenesis of His6-AtPEX5 (340-728) in pET-28b; also called D505H variant of AtPEX5C; source: E. coli BL21-Gold (DE3), purified (Co-NTA)
- T1 sequence (looked up): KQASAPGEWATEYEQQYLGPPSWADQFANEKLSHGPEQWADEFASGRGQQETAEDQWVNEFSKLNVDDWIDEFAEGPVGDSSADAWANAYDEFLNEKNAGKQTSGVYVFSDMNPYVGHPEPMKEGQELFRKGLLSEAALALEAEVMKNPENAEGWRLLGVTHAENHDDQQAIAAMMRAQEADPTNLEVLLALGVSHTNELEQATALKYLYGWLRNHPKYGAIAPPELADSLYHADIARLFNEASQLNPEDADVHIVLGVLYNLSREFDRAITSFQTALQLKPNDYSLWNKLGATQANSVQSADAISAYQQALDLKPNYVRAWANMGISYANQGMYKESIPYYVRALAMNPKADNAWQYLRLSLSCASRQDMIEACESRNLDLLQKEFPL
- ASSAY INFO: fluorescence polarisation; fluorescence anisotropy; AtPEX5C or variant serially diluted (from a 40 µM solution) against 100 nM lissamine-labelled peptide tracer; 20 mM HEPES, 150 mM NaCl, pH 7.5; gelatine-blocked 384-well plates; 25 °C, 20 min; fitted to a 1:1 binding model
- CONDITION INFO: both partners purified
Where no end group is shown, it is not given here.
Exercise: for every item that follows, state its recorded pKd.
Lab note — pKd values are minus log10 of concentrations in M.

Notebook: {lissamine rhodamine B sulfonyl}-YQSYY (pentapeptide found in the YQSXX library screen; also called lissamine-labelled YQSYY; source: synthetic peptide (Fmoc solid-phase synthesis, reverse phase HPLC)) [lissamine-YQSYY] , pKd read as 6.02

Notebook: {lissamine rhodamine B sulfonyl}-YQSKL (model PTS1 pentapeptide; also called lissamine-labelled YQSKL; model PTS1 peptide; source: synthetic peptide (Fmoc solid-phase synthesis, reverse phase HPLC)) [lissamine-YQSKL] , pKd read as 7.52
